System: M14 melanoma
Test: NCI tumour cell line growth inhibition, 48 h
Binary call on TGI: Condition met from 30 µM upward, Condition not met beneath that.

Request: Test whether the molecule "Cc1ccc(NC(Nc2ccc(C)cc2C)=C(/C=C(\Cl)[N+](=O)[O-])[N+](=O)[O-])c(C)c1" records TGI of 30 µM or higher.
Response: Condition not met

Request: Does "CC1(C)OC(=O)C(C#N)=C1/C=C/c1coc2ccc(Cl)cc2c1=O" have a reported TGI of at least 30 µM?
Response: Condition met

Request: Entry "CCCCn1c(N)c(-c2nc3ccccc3o2)sc1=S" : is its TGI no less than 30 µM?
Response: Condition met

Request: Determine whether this molecule has TGI no lower than 30 µM: C1CCC([PH+](C2CCCCC2)C2CCCCC2[PH+](C2CCCCC2)C2CCCCC2)CC1.[Au].[CH-]1CCCCC1CC1CCCC[N-]1 (stereo not given)
Response: Condition not met

Request: Is it the case that "O=C(O)CN1CCN(CC(=O)O)CC(=O)[O][Hg][O]C(=O)C1" has TGI reaching or exceeding 30 µM?
Response: Condition met

Request: Is TGI for CC/C=C\C/C=C\C/C=C\CCCCCCCC(=O)OCC(O)CO (stereo not given) at or above 30 µM?
Response: Condition met

Request: Check if TGI >= 30 µM (inclusive). Item: CC1CC(C)C(C#N)N(C)c2ccccc21 (stereo not given)
Response: Condition met

Request: Assess whether reported TGI for "COc1cccc(OC(=O)c2ccc(C(F)(F)F)nc2Nc2cc(Cl)ccc2C)c1" sits at 30 µM or higher.
Response: Condition met

Request: Item "O=C1CCCN1C(=O)CS(=O)(=O)c1ccccc1" with TGI of 30 µM or above?
Response: Condition met

----------
Hi there, I'd appreciate the recorded TGI for every entry that follows.
Tested on: MCF7 breast
Assay: NCI tumour cell line growth inhibition, 48 h
The response must be a number in µM with no trailing unit.

Request: Determine from records and report TGI for CS(=O)(=O)OCC1CN(S(C)(=O)=O)c2cc(O)ccc21 (configuration not stated)
Response: 26.2

Request: Check the records and state TGI for "C[C@@H]1CN(Cc2ccc(F)cc2)[C@@H](C)CN1C(=O)c1cc2c(C(=O)C(=O)N(C)C)cn(C)c2cc1Cl"
Response: 37.3

Request: Please list TGI recorded for the compound "CCCCCCCCCCCCCCCCCC[n+]1ccc2c(C)c3c(c(C)c2c1)c1cc(O)ccc1n3CC"
Response: 17.1

Request: Check the records and state TGI for "OCCNCCN1CCN(CCCN2c3ccccc3Sc3ccc(C(F)(F)F)cc32)CC1"
Response: 39.8

Request: Look up TGI of COC1C=COC2(C)Oc3c(C)c(O)c4c(c3C2=O)/C(=N/C2CCC(O)OC2C)C=C(NC(=O)/C(C)=C\C(=O)C2CC2C(O)C(C)C(O)C(C)C(OC(C)=O)C1C)C4=O (configuration not stated) and report it.
Response: 4.74

----------
Tested on: CAKI-1 renal
Assay: NCI tumour cell line growth inhibition, 48 h
parameter-measured: TGI

Request: Please list TGI recorded for the compound O=c1nc(NC2CCCCO2)ccn1CCO (centres undefined)
Response: > 100 µM

Request: Fill in reported TGI for this entry: CN1C(=O)N(C)C2C1NN=c1s/c(=C\c3ccc(C(F)(F)F)cc3)c(=O)n12 (centres undefined)
Response: > 100 µM

Request: Tell me TGI reported for NC(CSC1c2ccccc2-c2ccccc21)C(=O)O (centres undefined)
Response: > 100 µM

Request: Determine its reported TGI: CN(C)c1ccc(C(Cc2ccccc2)C2NC(=S)NC2=O)cc1 (centres undefined)
Response: > 100 µM

Request: Return value of TGI for input CCc1ccc2c(c1)N(CCO)C1=C(C(=O)OC1)C2c1cccc(Br)c1 (centres undefined) , no commentary.
Response: 23 µM

Request: Identify measured TGI associated with CCN1CCC(C)OP1(=O)Cc1ccccc1 (centres undefined)
Response: > 100 µM

Request: Answer with the recorded TGI of OCC12C3C4C5C3C1C5C42 (centres undefined) only.
Response: > 100 µM

Request: Consider the compound CC(=O)OC12C=C(C)C(C(C)C1)C1C(=O)N(CCN3CCOCC3)C(=O)C12 (centres undefined) . State its measured TGI.
Response: > 100 µM

Request: Input "C[C@@H]1CN(Cc2ccc(F)cc2)[C@@H](C)CN1C(=O)c1cc2c(C(=O)C(=O)N(C)C)cn(C)c2cc1Cl" , output reported TGI.
Response: 67.4 µM

Request: Look up and state reported TGI for "O=C(OCc1ccc2ccccc2n1)c1cn(C2CC2)c2cc(N3CCN(Cc4ccc5ccccc5n4)CC3)c(F)cc2c1=O"
Response: > 100 µM

Request: Please list TGI recorded for the compound "Oc1ccc(-c2cc(-c3cc(-c4ccc(O)cc4)no3)on2)cc1"
Response: > 100 µM

Request: Return reported TGI. Input compound: "O=c1[nH]cc(-c2c[nH]c3ccccc23)nc1-c1c[nH]c2ccccc12"
Response: 24.6 µM

Request: Give TGI for "COCc1nc(N)nc(N2N=C(C)CC2(C)C)n1"
Response: > 100 µM

Request: # return recorded TGI for entry "CCCCn1c(N)c(-c2nc3ccccc3o2)sc1=S"
Response: 41 µM
